testedTarget: T1, recombinant purified FRα (ECL assay calibrator) (human, UniProt P15328 25-234)
T1 construct: Calibrator of the ECL sandwich assays; also called FRα calibrator; FRα standard
T1 sequence (P15328 25-234 limits assumed): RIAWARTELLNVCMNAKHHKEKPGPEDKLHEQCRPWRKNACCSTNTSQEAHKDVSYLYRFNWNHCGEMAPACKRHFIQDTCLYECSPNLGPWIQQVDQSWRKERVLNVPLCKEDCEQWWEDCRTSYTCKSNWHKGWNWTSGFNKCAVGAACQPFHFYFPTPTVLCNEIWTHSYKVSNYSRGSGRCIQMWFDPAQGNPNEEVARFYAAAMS
assay: ECL sandwich, FRα calibrator; capture 19D2.G9; binder = detection Ab
Please note: Specific signal at 500 pg/mL exactly at 100 is Not fulfilled. Only values below 100 get Fulfilled.

[
  {
    "binder": "Monoclonal antibody 1D2.D8.G10 (antibody, mouse IgG1, V domains shown, Murine IgG1 kappa from hybridoma; also called 1D2.D8.G0; ATCC PTA-123098) VH: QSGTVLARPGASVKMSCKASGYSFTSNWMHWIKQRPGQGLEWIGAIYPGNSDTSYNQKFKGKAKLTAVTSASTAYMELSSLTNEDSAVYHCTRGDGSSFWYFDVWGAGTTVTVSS VL: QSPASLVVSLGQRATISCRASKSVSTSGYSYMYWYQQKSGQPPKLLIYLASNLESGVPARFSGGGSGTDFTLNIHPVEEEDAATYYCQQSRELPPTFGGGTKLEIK",
    "assignedCategory": "Fulfilled"
  },
  {
    "binder": "Monoclonal antibody 1A8.G11.E7 (antibody, mouse IgG1, V domains shown, Murine IgG1 kappa from hybridoma; also called ATCC PTA-123100) VH: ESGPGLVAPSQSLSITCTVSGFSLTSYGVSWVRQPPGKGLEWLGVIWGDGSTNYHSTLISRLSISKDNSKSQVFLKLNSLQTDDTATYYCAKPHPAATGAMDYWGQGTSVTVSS VL: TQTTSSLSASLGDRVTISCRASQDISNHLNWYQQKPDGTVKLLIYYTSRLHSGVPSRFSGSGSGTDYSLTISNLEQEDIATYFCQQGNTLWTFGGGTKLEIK",
    "assignedCategory": "Not fulfilled"
  },
  {
    "binder": "Monoclonal antibody 6A2.G7 (antibody, mouse IgG1, V domains shown, Murine IgG1 kappa from hybridoma; also called ATCC PTA-123093) VH: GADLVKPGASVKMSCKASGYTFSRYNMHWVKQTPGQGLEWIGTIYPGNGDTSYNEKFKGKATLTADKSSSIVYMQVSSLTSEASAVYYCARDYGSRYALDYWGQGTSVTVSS VL: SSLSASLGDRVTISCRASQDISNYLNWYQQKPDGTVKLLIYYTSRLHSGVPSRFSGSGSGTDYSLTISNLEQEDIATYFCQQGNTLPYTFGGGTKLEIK",
    "assignedCategory": "Not fulfilled"
  },
  {
    "binder": "Monoclonal antibody 26A9.C4 (antibody, mouse IgG1, V domains shown, Murine IgG1 kappa from hybridoma; also called ATCC PTA-123092) VH: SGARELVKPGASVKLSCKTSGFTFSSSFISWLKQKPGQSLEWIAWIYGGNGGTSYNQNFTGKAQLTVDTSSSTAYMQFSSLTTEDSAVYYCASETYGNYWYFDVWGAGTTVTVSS VL: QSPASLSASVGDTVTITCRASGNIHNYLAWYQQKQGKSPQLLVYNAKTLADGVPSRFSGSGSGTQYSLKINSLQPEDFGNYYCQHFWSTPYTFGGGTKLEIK",
    "assignedCategory": "Fulfilled"
  },
  {
    "binder": "Monoclonal antibody 24H8.F3 (antibody, mouse IgG1, V domains shown, Murine IgG1 kappa from hybridoma; also called ATCC PTA-123097) VH: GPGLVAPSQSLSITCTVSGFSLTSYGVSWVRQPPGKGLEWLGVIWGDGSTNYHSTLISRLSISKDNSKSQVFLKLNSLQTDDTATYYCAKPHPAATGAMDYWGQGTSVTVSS VL: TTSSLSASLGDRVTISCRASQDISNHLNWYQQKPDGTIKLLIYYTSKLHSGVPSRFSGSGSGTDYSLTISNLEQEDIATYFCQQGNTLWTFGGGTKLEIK",
    "assignedCategory": "Not fulfilled"
  },
  {
    "binder": "Monoclonal antibody 24H8.D3 (antibody, mouse IgG1, V domains shown, Biotin-conjugated when used as capture antibody in the ECL assay; also called ATCC PTA-123090) VH: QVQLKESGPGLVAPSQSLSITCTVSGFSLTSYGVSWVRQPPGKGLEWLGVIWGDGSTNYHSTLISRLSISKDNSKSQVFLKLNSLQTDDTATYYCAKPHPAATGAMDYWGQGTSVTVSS VL: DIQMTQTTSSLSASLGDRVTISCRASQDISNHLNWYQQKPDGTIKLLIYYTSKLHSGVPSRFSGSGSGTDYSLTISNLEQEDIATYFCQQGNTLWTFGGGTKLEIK",
    "assignedCategory": "Not fulfilled"
  },
  {
    "binder": "Monoclonal antibody 1C6.E12.G8 (antibody, mouse IgG1, V domains shown, Murine IgG1 kappa from hybridoma; also called ATCC PTA-123091) VH: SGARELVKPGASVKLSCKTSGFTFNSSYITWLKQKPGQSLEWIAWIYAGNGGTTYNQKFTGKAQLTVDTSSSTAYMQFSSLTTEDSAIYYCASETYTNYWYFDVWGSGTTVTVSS VL: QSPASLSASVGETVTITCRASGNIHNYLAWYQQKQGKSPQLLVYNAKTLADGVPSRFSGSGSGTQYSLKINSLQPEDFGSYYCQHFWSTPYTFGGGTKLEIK",
    "assignedCategory": "Fulfilled"
  },
  {
    "binder": "Monoclonal antibody 19D4.B7 (antibody, mouse IgG2a, V domains shown, SULFO-TAG conjugated when used as detection antibody in the ECL assay; also called ATCC PTA-11884) VH: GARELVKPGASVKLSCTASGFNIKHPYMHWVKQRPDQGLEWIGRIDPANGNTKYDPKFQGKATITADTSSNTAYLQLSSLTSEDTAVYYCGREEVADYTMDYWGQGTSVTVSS VL: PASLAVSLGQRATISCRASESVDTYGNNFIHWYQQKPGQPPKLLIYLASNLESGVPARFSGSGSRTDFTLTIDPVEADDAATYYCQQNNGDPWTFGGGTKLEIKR",
    "assignedCategory": "Not fulfilled"
  }
]
